Please respond with reported pull-down binding Z-score for every item in the list.
- Test system: TO-N3-2 (biotin conjugate)
- procedure_text: pull-down binding Z-score (relative to library population); higher = stronger binding
- run_conditions: RNA library: Library-2
Numbers only.

Please supply pull-down binding Z-score for each of the following items, keeping them in order.
1. GCUGGAUUUCCCAGCUUGACUCUAAC [hsa-mir-200a]
2. AGCUUCUACGUCAUUCAGCACUUGCU [hsa-mir-5706]

Solution:
1: -0.215; 2: -0.31

----------
- Test system: TO-3-N3 (biotin conjugate)
- procedure_text: pull-down binding Z-score (relative to library population); higher = stronger binding
- run_conditions: RNA library: Library-2
Category scheme (pull-down binding Z-score): low interval: < -0.2; middle interval: ≥ -0.2 and < 0.2; high interval: ≥ 0.2

Here's what some known entries look like.
Exercise: Given GCCGCCACUAGAGGAGCUACUGUAGUAAUUGGAACAAGCAAAUUCUAUGGUGGUUGGC , name the class its pull-down binding Z-score places it in.
Solution: high interval

Exercise: Given UGAAUUAGACUCAUUCA [DMSMaPseq_invitro_SARS-CoV-2_Motif_447] , name the class its pull-down binding Z-score places it in.
Solution: low interval

Exercise: Given CAGGAGUGGACACCUG [hsa-mir-1246] , name the class its pull-down binding Z-score places it in.
Solution: middle interval

Exercise: Given UUAAUUGAAUUGUGCGUGGAUGAGGCUGGUUCUAAAUCACCCAUUCAGUACAUCGAUAUCGGUAAUUAUACAGUUUCCUGUUUACCUUUUACAAUUAA [DMSMaPseq_invitro_SARS-CoV-2_Multi_84_ComplexLevel_1] , name the class its pull-down binding Z-score places it in.
Solution: low interval

Exercise: Given AUCUGCAGGGCAUUGUGCUAACAGGU [hsa-mir-4681] , name the class its pull-down binding Z-score places it in.
Solution: high interval

Exercise: Given CGAUAAACCCCUAAAUAGGGACUUUCCCG [hsa-mir-484] , name the class its pull-down binding Z-score places it in.
Solution: low interval

Proceed to the following item.
Exercise: Given GACAUCCCUCAUCUGUUUCUCACUGGUGUC [hsa-mir-6830] , name the class its pull-down binding Z-score places it in.
Solution: middle interval
